Overview of recorded IC50 for various molecules
target: LATS1 (Homo sapiens (Human)); test: LATS1 biochemical assay (Table 1A, Compound Examples 1-290; method in the earlier part)
Please give a number only; it is taken to be in nM.

CC1CCCC1Nc1nc(-c2ccncc2)nc2cnccc12 (single isomer, unassigned) [Example 17c]: 3
CC(C)N(C)c1cc(-c2ccncc2F)nc2cnccc12: 65
CC(C)(O)CC(C)(C)Nc1nc(-c2cn[nH]c2)nc2cnccc12: 14

Now turn to the next molecule.
Exercise: Quick check: IC50 of `FC(F)(F)C1(Nc2nc(-c3ccncc3)cc3cnccc23)CC1` ?
Key: 4

* * *

tested on: hepatic progenitor cells (HPC); assay: Mouse Hepatic Progenitor Cell Proliferation Assay; type: cell-based; settings: 96 h, mean number of nuclei per organoid, 4 days
observed property: EC50 (nM)
Please give a number only; it is taken to be in nM.

CC(C)(Nc1nc(-c2ccncc2)nc2cnccc12)C(F)(F)F: 840

Now turn to the next molecule.
Exercise: Quick check: EC50 of C[C@H](N(C)c1nc(-c2ccncc2)nc2cnccc12)C(F)(F)F [Example 48a] ?
Key: 260

* * *

target: LATS1 (Homo sapiens (Human)); assay: LATS1 biochemical assay (Table 1A, Compound Examples 1-290; method in the earlier part)
observed property: IC50 (nM)
Please give a number only; it is taken to be in nM.

Recorded IC50, per entry:
CC(C)(Nc1nc(-c2c[nH]nc2C(F)(F)F)nc2cnccc12)C(F)(F)F: 12
CCn1nccc1-c1nc(NC2(C)CC2)c2ccncc2n1: 61
Cc1ccccc1Nc1nc(-c2ccncc2)nc2cnccc12: 44
FC(F)(F)C1(Nc2nc(-c3ccncc3)nc3cnccc23)CCC1: 1
CC1(Nc2nc(-c3ccnc(F)c3F)nc3cnccc23)CC1: 168
O[C@@H]1CCC[C@@H]1Nc1nc(-c2ccncc2)nc2cnccc12: 31

Exercise: Reported IC50 for LATS1 (Homo sapiens (Human)), given C[C@H]1CCC[C@H]1Nc1nc(-c2ccncc2)nc2cnccc12 (single isomer, unassigned) [Example 17a] ?
Key: 3

Exercise: Reported IC50 for LATS1 (Homo sapiens (Human)), given `Cc1cnccc1-c1nc(NC(C)(C)C)c2ccncc2n1` ?
Key: 4

Exercise: Reported IC50 for LATS1 (Homo sapiens (Human)), given `CC(C)(CO)Nc1nc(-c2ccncc2)nc2cnccc12` ?
Key: 2

* * *

target: LATS1 (Homo sapiens (Human), UniProt O95835); assay: LATS1 biochemical assay (Table 1A, Compound Examples 1-290; method in the earlier part)
Sequence (O95835 whole entry, looked up): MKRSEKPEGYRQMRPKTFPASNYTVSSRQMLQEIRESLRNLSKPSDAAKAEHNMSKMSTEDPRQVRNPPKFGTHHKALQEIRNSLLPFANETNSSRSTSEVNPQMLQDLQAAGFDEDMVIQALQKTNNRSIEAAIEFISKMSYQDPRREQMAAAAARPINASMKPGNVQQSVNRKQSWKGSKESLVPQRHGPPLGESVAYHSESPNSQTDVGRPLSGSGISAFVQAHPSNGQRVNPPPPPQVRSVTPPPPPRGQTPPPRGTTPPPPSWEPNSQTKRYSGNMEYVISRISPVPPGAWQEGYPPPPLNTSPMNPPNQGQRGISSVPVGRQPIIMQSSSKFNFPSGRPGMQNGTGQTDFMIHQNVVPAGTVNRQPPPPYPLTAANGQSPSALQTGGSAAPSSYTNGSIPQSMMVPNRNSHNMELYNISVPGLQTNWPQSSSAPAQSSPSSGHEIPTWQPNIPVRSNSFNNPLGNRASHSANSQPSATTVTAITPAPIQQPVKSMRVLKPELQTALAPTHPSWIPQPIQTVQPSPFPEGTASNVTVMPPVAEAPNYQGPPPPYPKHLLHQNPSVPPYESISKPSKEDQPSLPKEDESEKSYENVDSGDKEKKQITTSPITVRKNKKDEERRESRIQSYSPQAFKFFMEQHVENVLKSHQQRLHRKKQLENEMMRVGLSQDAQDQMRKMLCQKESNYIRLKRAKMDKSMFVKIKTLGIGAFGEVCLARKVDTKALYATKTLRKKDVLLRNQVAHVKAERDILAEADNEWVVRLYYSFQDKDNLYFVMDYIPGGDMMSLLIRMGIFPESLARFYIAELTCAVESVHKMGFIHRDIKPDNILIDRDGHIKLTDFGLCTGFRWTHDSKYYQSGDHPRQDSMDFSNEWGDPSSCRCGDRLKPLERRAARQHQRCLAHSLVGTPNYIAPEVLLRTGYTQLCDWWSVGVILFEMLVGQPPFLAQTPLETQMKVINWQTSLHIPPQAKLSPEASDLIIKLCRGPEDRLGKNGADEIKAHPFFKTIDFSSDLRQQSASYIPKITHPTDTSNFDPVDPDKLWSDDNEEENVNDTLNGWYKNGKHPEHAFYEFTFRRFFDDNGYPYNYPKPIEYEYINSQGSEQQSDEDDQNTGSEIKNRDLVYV
Sequence (Q7L9L4 whole entry partner, looked up): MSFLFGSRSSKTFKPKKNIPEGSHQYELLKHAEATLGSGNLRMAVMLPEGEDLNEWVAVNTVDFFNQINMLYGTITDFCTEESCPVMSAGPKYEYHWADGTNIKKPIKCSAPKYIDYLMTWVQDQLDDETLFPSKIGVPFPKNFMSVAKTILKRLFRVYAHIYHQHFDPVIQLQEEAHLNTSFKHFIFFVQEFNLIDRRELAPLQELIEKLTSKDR
observed property: pIC50
Schema: pIC50 number; meaning minus log10 of the concentration expressed in molar units.

Exercise: Quick check: pIC50 of CC[C@H](C)Nc1nc(-c2ccncc2)nc2cnccc12 (single isomer, unassigned) [Example 68a] ?
Key: 9.00

Exercise: Quick check: pIC50 of `CC[C@@H](C)Nc1cc(-c2ccncc2)nc2cnccc12` ?
Key: 7.66

Exercise: Quick check: pIC50 of CC[C@@H](C)Nc1nc(-c2ccncc2)nc2cnccc12 (single isomer, unassigned) [Example 68b] ?
Key: 8.70

Exercise: Quick check: pIC50 of CC(C)(O)C(C)(Nc1nc(-c2ccncc2)nc2cnccc12)C(F)(F)F (stereo not drawn) ?
Key: 8.30

Exercise: Quick check: pIC50 of `Cc1cc(-c2nc(NC3(C)CC3)c3ccncc3n2)on1` ?
Key: 5.05

Exercise: Quick check: pIC50 of `CC(C)Nc1nc(-c2ccncc2)nc2cnccc12` ?
Key: 9.00

Exercise: Quick check: pIC50 of `Cc1nccc2c(NC3(C)CC3)nc(-c3ccncc3)nc12` ?
Key: 9.00

Exercise: Quick check: pIC50 of `Cn1nccc1-c1nc(NC2(C(F)(F)F)CC2)c2ccncc2n1` ?
Key: 7.08
